target under test: T1, recombinant human MOG protein (human, UniProt Q16653 30-154, limits assumed)
T1 construct: Bought recombinant protein; also called HMOG
T1 sequence (looked up): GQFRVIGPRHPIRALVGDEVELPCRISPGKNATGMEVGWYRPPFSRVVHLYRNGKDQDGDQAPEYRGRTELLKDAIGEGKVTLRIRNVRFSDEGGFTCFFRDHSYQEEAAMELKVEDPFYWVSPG
protocol notes: phage-scFv ELISA on coated recombinant human MOG (0.5 µg/well), anti-M13 HRP, OD450 over BSA background
Entries and their ratio OD on target/OD bdf values follow.
quantity kind: ratio OD on target/OD bdf (ratio)

{"binder": "anti-MOG MO3J-72 antibody (scFv, V domains shown) VH: EVQLVESGGGSVKPGGSLRLSCAASGFRFDDYAMHWVRQAPGKGLEWVSGISWNSGAIGYADSVQGRFTISGDNAKNTLYLQMNGLRVEDTAMYYCARDGHGDYPIDYWGQGTLVTVSS VL: QSVLTQPPSVSGAPGQRVSISCTGSGSNIGAGFDVHWYQQVPGTTPKLLIYGNNNRPSGVPDRFSGSTSATSASLAITGLQADDEADYYCQSYDRSLRYVFGTGTKLTVL", "output unit": "ratio", "test value": 2.05}
{"binder": "anti-MOG MO3F-02 antibody (scFv, V domains shown) VH: QVQLQQSGPGLVKPSQTLSLTCAISGDSVSSNSAAWNWIRKSPSRGLEWLGRTYYRSKWYNDYAVSVKSRITINPDTSKNQFSLQLSSVTPEDTAVYYCARASAGTFGYWGQGTLVTVSS VL: DIVMTQSPSSLSASVGDRVTMTCRASQTINTYLNWYQQKPGKAPKLLIYAASTLQSGVPSRFSGSGSGTDFSLTISSLQPEDFATYYCQHGYNNPPFTFGPGTKVDIK", "output unit": "ratio", "test value": 13.8}
{"binder": "anti-MOG MO3I-56 antibody (scFv, V domains shown) VH: QVQLVESGGGVVQPGSSLRLSCTASGFKFDDYAMHWVRQAPGKGLEWVSGISWNSGSIGYADSVKGRFTISRDNAKNSLYLQMNSLRAEDTASYYCAKSLPHYYDSPPYGMDVWGQGTLVTVSS VL: DIQLTQSPSSLSASVGDRVTITCRASQGISSALAWYQQKPGKAPKLLIYDASSLESGVPSRFSGSGSGTDFTLTISSLQPEDFATYYCQHRGTFGGGTKVDIK", "output unit": "ratio", "test value": 2.29}
